Biological target: LFA-1/ICAM-1 (Homo sapiens, UniProt P20701)
Sequence (P20701 26-1170): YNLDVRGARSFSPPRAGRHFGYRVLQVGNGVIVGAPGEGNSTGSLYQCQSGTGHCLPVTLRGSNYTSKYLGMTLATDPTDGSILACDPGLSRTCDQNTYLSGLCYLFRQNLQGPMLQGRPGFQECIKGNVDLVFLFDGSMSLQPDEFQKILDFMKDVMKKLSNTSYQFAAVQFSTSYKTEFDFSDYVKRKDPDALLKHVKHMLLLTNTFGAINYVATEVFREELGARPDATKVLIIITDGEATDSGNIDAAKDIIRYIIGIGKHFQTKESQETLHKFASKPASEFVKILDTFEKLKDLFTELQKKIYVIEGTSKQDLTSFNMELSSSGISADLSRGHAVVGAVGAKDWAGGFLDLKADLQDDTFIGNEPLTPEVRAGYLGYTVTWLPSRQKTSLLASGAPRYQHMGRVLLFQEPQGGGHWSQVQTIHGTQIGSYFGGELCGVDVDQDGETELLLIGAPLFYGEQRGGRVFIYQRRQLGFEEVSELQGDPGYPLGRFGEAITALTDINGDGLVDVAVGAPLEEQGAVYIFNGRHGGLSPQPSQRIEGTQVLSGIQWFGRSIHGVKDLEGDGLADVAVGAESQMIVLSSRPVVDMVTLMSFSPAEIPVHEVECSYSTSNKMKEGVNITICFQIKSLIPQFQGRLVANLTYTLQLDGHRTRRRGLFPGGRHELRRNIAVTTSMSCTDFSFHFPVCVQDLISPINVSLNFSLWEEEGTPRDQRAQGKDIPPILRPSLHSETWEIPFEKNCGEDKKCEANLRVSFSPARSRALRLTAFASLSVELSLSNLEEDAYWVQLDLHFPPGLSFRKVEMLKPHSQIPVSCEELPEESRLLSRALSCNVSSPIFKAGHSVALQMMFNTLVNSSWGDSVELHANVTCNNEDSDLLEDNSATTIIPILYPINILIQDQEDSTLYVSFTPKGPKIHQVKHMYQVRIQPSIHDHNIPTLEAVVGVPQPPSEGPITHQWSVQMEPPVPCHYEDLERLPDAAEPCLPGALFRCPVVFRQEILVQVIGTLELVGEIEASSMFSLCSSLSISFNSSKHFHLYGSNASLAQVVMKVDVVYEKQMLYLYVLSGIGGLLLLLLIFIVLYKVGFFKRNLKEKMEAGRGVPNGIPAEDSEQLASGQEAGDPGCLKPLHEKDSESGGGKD
Sequence (P05107 23-769 partner): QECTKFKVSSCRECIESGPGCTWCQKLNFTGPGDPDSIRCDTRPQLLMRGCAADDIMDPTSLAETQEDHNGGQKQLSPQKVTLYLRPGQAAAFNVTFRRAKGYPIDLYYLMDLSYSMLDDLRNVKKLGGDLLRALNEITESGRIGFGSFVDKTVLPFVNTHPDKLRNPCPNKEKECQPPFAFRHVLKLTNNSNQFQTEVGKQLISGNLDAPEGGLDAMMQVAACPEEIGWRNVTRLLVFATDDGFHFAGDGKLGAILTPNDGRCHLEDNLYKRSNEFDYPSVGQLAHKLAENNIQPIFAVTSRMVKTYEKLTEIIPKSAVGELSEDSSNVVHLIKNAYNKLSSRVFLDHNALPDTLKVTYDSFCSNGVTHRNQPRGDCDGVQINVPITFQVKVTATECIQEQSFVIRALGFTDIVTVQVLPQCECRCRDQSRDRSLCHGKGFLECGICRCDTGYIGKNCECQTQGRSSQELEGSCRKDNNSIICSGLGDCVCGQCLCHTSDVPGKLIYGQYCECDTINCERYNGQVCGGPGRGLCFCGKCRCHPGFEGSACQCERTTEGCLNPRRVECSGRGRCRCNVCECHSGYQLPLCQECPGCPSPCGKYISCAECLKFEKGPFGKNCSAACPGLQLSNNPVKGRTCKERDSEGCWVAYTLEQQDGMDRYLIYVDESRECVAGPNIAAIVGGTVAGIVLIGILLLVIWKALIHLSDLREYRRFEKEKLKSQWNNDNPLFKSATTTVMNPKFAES
Assay: Jurkat T-cell adhesion assay
Conditions: IC50, Jurkat T-cell adhesion assay, text and Fig. 3
MEASURED PROPERTY: IC50

IN: Value lookup for IC50; key = CS(=O)(=O)c1cccc(C[C@H](NC(=O)c2c(Cl)cc3c(c2Cl)CCN(C(=O)c2ccc4ccoc4c2)C3)C(=O)O)c1 [Lifitegrast, reference compound]
OUT: ~10.5 nM
